Attribution: PubChem BioAssay AID1159580

Assay: chemical genetic growth profiling, strain panel (AID 1159580);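 note: tested at 20 µM; growth read once vehicle control cultures reached saturation at 30 °C; 1 = growth at the plate median or of vehicle wells; lower values mean less growth of the strain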
Details: S. cerevisiae deletion strains, growth OD, locus YJR075W, strain HOC1
Among all 5,500 compounds or so, about 2,000 (36%) were called active. Inconclusive results (about 18%) are left out. Cut-off read from the data, not from the text of the source: active = normalized growth mostly below about 0.91 (no sharp cut-off); inconclusive = no clear call, values can overlap the other calls; inactive = mostly above about 0.92. The list shows a part of the results.
Entry note: the call must match one of 1.0 = active, 0.0 = inactive

Study these solved cases before continuing.
- compound: "O=C1CCC(=O)N1CNc1ccccc1OC(F)(F)F"
  category_label: 0.0
- compound: "CSc1sc(-c2ccn[nH]2)c(-c2ccccc2)c1C#N"
  category_label: 0.0
- compound: "COC(=O)Cc1nc(NC(=O)c2ccccc2)sc1C"
  category_label: 0.0
- compound: "O=C(NC(=S)Nc1ccc(Cl)cc1)c1ccc([N+](=O)[O-])o1"
  category_label: 0.0
- compound: "COc1ccc(/C=C(\\C#N)c2nc3ccccc3[nH]2)cc1OC"
  category_label: 1.0

I'd appreciate the recorded outcome for CSC(=Nc1ccc(C(C)C)cc1)NC#N from this test.
0.0

I'd appreciate the recorded outcome for COc1ccc(/C=N\NC(=O)CC#N)cc1OC from this test.
0.0

I'd appreciate the recorded outcome for Cc1cccc(N2C(=O)C3C4C=CC(C4)C3C2=O)n1 (stereo not drawn) from this test.
0.0
